B1: Membrane-associated guanylate kinase, WW and PDZ domain-containing protein 1, residues 352 to 401; numbered along this chain, Q96QZ7 (parent)
chain: TEELDSELELPAGWEKIEDPVYGIYYVDHINRKTQYENPVLEAKRKKQLE

Variants of: B1
TEST: abundance fitness (aPCA) (normalised: wild type 0, dead -1); higher = more abundant; growth selection in yeast, the domain comes from the species named
CONDITION_SET: Homo sapiens
PROPERTY_MEASURED: abundance fitness
When you answer, write just the number.

Past entries and their recorded results:
R32F; -0.431
E50I; -0.273
V27D; 0.071
I24C; -0.22

[Q] Record request: abundance fitness value, item H29T
[A] 0.016

[Q] Requested read-out: abundance fitness. Entry: D5H
[A] -0.192

[Q] Look up abundance fitness: Y22S
[A] -0.035

[Q] Which value of abundance fitness has been reported for E42R in the records?
[A] -0.565

[Q] Can you share its abundance fitness? I mean this variant: T1Y
[A] -0.155

[Q] Please report the recorded abundance fitness for P11Q .
[A] -0.38

[Q] Bench note: what abundance fitness did T34C show?
[A] 0.042

[Q] What value of abundance fitness has been recorded for this entry: H29V
[A] -0.207

[Q] Dear colleague, I am looking for the recorded abundance fitness of the following variant: Y36P
[A] -0.161

[Q] Bench note: what abundance fitness did V40F show?
[A] -0.385

[Q] Looking for the measured abundance fitness of V40R , can you help?
[A] -0.099

[Q] Need abundance fitness, item E7I
[A] -0.314

[Q] I would be grateful if you could share the reported abundance fitness for R32T .
[A] -0.607
